The compounds listed here are annotated with their inhibition.
- subject of test: Genome polyprotein (Dengue virus type 2 (strain 16681-PDK53))
- assay name: flavivirus cap methylation enzyme inhibition – biochemical, confirmation dose response, primary screen (AID 588689)
- condition parameters: Dengue-2 NS5 methyltransferase capping enzyme assay, at 25 µM, hits give high values
The whole screen tested about 340,000 compounds, of which about 1,000 (0.29%) were called active. A selection follows. Results with a measured potency or affinity are listed apart.
measured property: inhibition (%)

>  <compound>
Cc1cccc(C)c1OCCn1nnc2ccccc21

>  <measure unit>
%

>  <numeric value>
1.31

$$$$
>  <compound>
CCN(CC)C1CC(=O)N(c2ccc(Br)cc2)C1=O (stereo unspecified)

>  <measure unit>
%

>  <numeric value>
-14.3

$$$$
>  <compound>
Cc1ccc(CNC(=O)CCn2ccc3cc(S(=O)(=O)N4CCCC4)ccc32)cc1

>  <measure unit>
%

>  <numeric value>
-4.92

$$$$
>  <compound>
COc1cccc(-c2ccc3ncnc(NCc4cccc(C)c4)c3c2)c1

>  <measure unit>
%

>  <numeric value>
-0.8

$$$$
>  <compound>
CCn1c(C)nc2cc(C(=O)N/N=C/c3cccc(O)c3O)ccc21

>  <measure unit>
%

>  <numeric value>
-0.82

$$$$
>  <compound>
O=C(CCc1ccc(S(=O)(=O)N2CCOCC2)cc1)N/N=C/c1cccc(O)c1

>  <measure unit>
%

>  <numeric value>
-1.28

$$$$
>  <compound>
O=C(O)c1cc(S(=O)(=O)Nc2ccccc2C(=O)O)ccc1O

>  <measure unit>
%

>  <numeric value>
24.8

$$$$
>  <compound>
O=C(CCN1CCN(c2ccccc2)CC1)N/N=C/c1ccccc1O

>  <measure unit>
%

>  <numeric value>
-10.4

$$$$
>  <compound>
COc1ccccc1N1C(=O)CC(N(O)c2ccccc2)C1=O (stereo unspecified)

>  <measure unit>
%

>  <numeric value>
-4.6

$$$$
>  <compound>
NC(=O)c1sc2cc(C(F)(F)F)cnc2c1-c1ccccc1

>  <measure unit>
%

>  <numeric value>
1.48

$$$$
>  <compound>
Cc1cc(/C=N/NC(=O)c2ccccc2F)c(C)n1-c1ccccc1

>  <measure unit>
%

>  <numeric value>
-8.18

$$$$
